System: porcine liver carboxyesterase (PLCE)
experiment_notes: in vitro
Format: in vitro ADME
measurement_context: pig; 37° C., PBS pH 7.4; read-out: PLCE hydrolysis rate t1/2
readout_name: half-life at 0.04 mg/mL (min)
Record the value in min, omitting the unit from your answer.

Form field: reported half-life at 0.04 mg/mL of CC(C)OC(=O)[C@H](C)N[P@](=O)(CO[C@H](C)Cn1cnc2c(N)ncnc21)Oc1ccccc1 (single isomer, unassigned)
3.3

====

experiment_notes: Stability in human plasma
Type: in vitro ADME
measurement_context: pH 7.5; human plasma; read-out: Stability T 1/2 Human Plasma
Protocol: The in vitro metabolism and stability of separated diastereomers were determined in PLCE, MT-2 extract and human plasma. A biological sample listed below, 80 μL, was transferred into a screw-capped centrifuge tube and incubated at 37° C. for 5 min. […] The mixture thus obtained was centrifuged at 15,000 G for 5 min and the supernatant was analyzed with HPLC under the conditions described below. […]
readout_name: half-life at 0.04 mg/mL
In your response, the unit should come after the numeric value.

Form field: reported half-life at 0.04 mg/mL of CC(C)OC(=O)[C@H](C)N[P@](=O)(CO[C@H](C)Cn1cnc2c(N)ncnc21)Oc1ccccc1 (single isomer, unassigned)
1.5 h

====

experiment_notes: Cytotoxicity in MT-2 cells
measurement_context: human, Cytotoxicity CC50, MT-2 cells
readout_name: CC50

Form field: reported CC50 of CC(C)OC(=O)[C@H](C)N[P@](=O)(CO[C@H](C)Cn1cnc2c(N)ncnc21)Oc1ccccc1 (single isomer, unassigned) [GS-7340]
> 40 µM

====

Quick record: CC50, MT-2 cells.
Record the value in µM, omitting the unit from your answer.

compound	CC50, µM
COC(=O)[C@H](C)NP(=O)(CO[C@H](C)Cn1cnc2c(N)ncnc21)Oc1ccccc1 (mixture of isomers)	80

Could you now look at the following compound, please?
What CC50 appears in the records for this compound with MT-2 cells? CC(C)OC(=O)OCOP(=O)(CO[C@H](C)Cn1cnc2c(N)ncnc21)OCOC(=O)OC(C)C.O=C(O)/C=C/C(=O)O [TDF, tenofovir disoproxil fumarate, reference compound]
70

====

Reported CC50 values for the following compounds.
Tested on: MT-2 cells
experiment_notes: Cytotoxicity in MT-2 cells
measurement_context: cell culture
Record the value in µM, omitting the unit from your answer.

compound	CC50 / µM
COC(=O)[C@H](Cc1ccccc1)NP(=O)(CO[C@H](C)Cn1cnc2c(N)ncnc21)Oc1ccccc1 (stereo partly shown)	60

Could you now look at the following compound, please?
Form field: reported CC50 of CCOC(=O)[C@H](C)N[P@@](=O)(CO[C@H](C)Cn1cnc2c(N)ncnc21)Oc1ccccc1 (mixture of isomers) [Ala-ethyl, Phenyl PMPA, Ethyl L-Alanyl Amidate]
60

Taken from patent US20040018150A1.
